- Tested on: linear pBR322 DNA
- ASSAY COMMENT: DNA cross-linking, electrophoretic assay (Hartley et al.)
- Type: biochemical
- PROTOCOL CONDITIONS: Alkali; 2 h at 37° C., pH 7.2; read-out: XL50 (concentration that results in 50% cross-linked plasmid DNA), Alkali
MEASURED QUANTITY: pEC50
Hey, just a heads up that pEC50 is the negative log base 10 of the concentration in molar.

[
  {
    "COMPOUND": "COc1cc2c(cc1NC(=O)c1cc(C(=O)Nc3cc4c(cc3OC)C(=O)N3CCC[C@H]3C=N4)n(C)c1)N=C[C@@H]1CCCN1C2=O [(2) SJG-604]",
    "pEC50": 5.46
  }
]

COc1cc2c(cc1NC(=O)c1ccc(C(=O)Nc3cc4c(cc3OC)C(=O)N3CCC[C@H]3C=N4)n1C)N=C[C@@H]1CCCN1C2=O [(1) SJG-605] has a reported pEC50 of 5.89

COc1cc2c(cc1OCCCNC(=O)c1ccc(C(=O)NCCCOc3cc4c(cc3OC)C(=O)N3CCC[C@H]3C=N4)n1C)N=C[C@@H]1CCCN1C2=O [(13) AT-217] has a reported pEC50 of 6.46
